These data points were gathered from the supplement of paper PMC10567573.

Measured protein stability index, listed per entry for reference.
B1: CHMP4C (parent)
chain: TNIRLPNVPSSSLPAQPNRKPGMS

variants of: B1; assay: protein stability index of a GFP-peptide fusion (GPS, HEK-293T) (PSI 1-6); higher = more stable; details: c terminus: a fixed tail appended;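 also: lentivirally expressed fusions sorted by FACS into six bins by GFP to DsRed ratio, PSI derived from sequencing read proportions per bin multiplied by bin number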

[[record]]
variant_string = "N2D"
measure = "protein stability index"
measured_value = 4.77

[[record]]
variant_string = "P14A"
measure = "protein stability index"
measured_value = 4.14

[[record]]
variant_string = "L13S"
measure = "protein stability index"
measured_value = 4.76


Query string: protein stability index lookup needed for T1R , thanks.
Result string: 4.77

Query string: For the variant shown here, G22R , give the reported protein stability index.
Result string: 4.92

Query string: Record request: protein stability index value, item M23S
Result string: 5.17
